# targetOrSystem: T1, human mesothelin (MSLN) on the cell surface (human, UniProt Q13421 296-598)
# T1 construct: also called MSLN of mesothelioma (H226, H2052) and pancreatic cancer (AsPC-1) cell lines; MSLN on MiaPaCa-MSLN #2 cells
# T1 sequence (Q13421 other isoform, or with tags, fused parts or gaps limits assumed): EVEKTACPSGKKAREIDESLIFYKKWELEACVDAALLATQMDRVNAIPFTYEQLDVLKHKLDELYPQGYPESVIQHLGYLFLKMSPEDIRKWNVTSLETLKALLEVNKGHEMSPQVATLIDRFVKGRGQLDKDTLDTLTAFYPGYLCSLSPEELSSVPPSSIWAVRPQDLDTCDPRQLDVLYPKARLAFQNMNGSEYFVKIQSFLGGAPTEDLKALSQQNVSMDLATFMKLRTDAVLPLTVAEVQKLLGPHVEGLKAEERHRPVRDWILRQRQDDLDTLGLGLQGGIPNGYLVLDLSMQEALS
# experiment: FACS on MSLN stable cell line (#2), left panels; sheet note: 1st Ab 1 µg (1st assay), 2nd Ab anti-human Fc antibody FITC
# Protocol: FACS test was performed on the MSLN present in the cell surface with regard to MiaPaCa-MSLN which is a cell line in which the MSLN was artificially expressed. Cells to be analyzed that were grown in a culture dish were separated by adding a Tryple Express solution and stored in a 50 mL tube, followed by centrifugation at 2000 rpm at room temperature for 3 minutes to decant the culture fluid, and the obtained product was washed once with PBS. […]
quantity: Mean, FL1-H
One number for each entry.

Before answering, review these 2 worked examples.
- binder: "clone MI403 anti-MSLN antibody (antibody, V domains shown, also called M1403) VH: EVQVVESGGGLVKPGGSLKLSCAASGFAFSSYDMSWVRQTPEKRLEWVAYISSGGGSTYYPDTVKGRFTISRDNAKNTLYLQMNSLKSEDTAMYYCARQGTAVKNYWYFDVWGAGTSVTVSS VL: DIVMTQSPASLAVSLGQRATISCRASQSVSTSSSSYVHWYQQRPGQPPKLLIKYASNLESGVPARFSGSGSGTDFTLNIHPVEEEDTGTYYCQHSWEIPFTFGSGTKLEIKR"
  Mean, FL1-H: 250
- binder: "clone MI323 anti-MSLN antibody (antibody, V domains shown, also called M1323) VH: EVQLQQSGPELVKPGTSVKISCKASGYSFTSYFIQWVKQRPGQGLEWIGWIFPGSGNTKYNEMFKGKATLAADTSSSTAYMQLSSLTSEDSAVYFCARSGGYQYYFDYWGQGTSVTVSS VL: DIVMTQSHKFMSTSVGDRVSITCKASQDVSTAVAWYQQKPGQSPKLLIYSASYRYPGVPDRFTGSGSGTDFTFTISSVQAEDLALYYCQQHYSTPWTFGGGTKLEIKR"
  Mean, FL1-H: 419

*Q* Item under review: clone MS505 anti-MSLN antibody (antibody, IgG1, V domains shown, From a phage display synthetic scFv library) VH: EVQLLESGGGLVQPGGSLRLSCAASGFTFSNYAMSWVRQAPGKGLEWVSAIYPDGSNKYYADSVKGRFTVSRDNSKNTLYLQMNSLRAEDTAVYYCARNAYTFDYWGQGTLVTVSS VL: QSVLTQPPSASGTPGRRVTISCSGSSSNIGSNAVSWYQQLPGTAPKLLIYYNSQRPSGVPDRFSGSKSGTSASLAISGLRSEDEADYYCGSWDSSLNGYVFGGGTKLTVLG . Reported Mean, FL1-H?
*A* 181
